Target: 5-HT2A receptor (Homo sapiens, UniProt P28223)
Sequence (P28223 whole entry): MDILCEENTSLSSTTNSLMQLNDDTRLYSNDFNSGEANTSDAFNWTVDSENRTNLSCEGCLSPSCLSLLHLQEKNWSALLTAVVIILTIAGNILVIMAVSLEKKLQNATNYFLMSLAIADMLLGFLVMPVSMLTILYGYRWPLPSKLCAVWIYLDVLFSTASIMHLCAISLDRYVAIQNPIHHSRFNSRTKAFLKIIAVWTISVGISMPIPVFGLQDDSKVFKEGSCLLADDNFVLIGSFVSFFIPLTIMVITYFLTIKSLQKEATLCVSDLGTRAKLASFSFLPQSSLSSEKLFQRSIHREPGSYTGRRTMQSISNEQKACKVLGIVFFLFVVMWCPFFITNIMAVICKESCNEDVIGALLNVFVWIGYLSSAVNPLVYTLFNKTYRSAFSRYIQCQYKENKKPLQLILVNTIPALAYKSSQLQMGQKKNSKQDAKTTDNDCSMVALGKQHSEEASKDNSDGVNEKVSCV
Assay: Functional activity, FLIPR calcium assay, h5-HT2A
Details: CHO cells expressing human 5-HT2A; FLIPR
measured endpoint: pEC50
// pEC50: -log10(molar conc.)

// known answers, use as guide
{"compound": "C[C@@H]1CNC[C@H]2Cc3cc(Cl)c(C(F)F)nc3N21 [Example 23]", "recorded result": 7.15}
{"compound": "Cc1c(F)cnc2c1C[C@@H]1CNC[C@@H](C)N21 [Example 80]", "recorded result": 6.75}

pEC50 recorded for this compound, CO[C@H](C)c1nc2c(cc1Cl)C[C@@H]1CNC[C@@H](C)N21 [Example 46] , is 6.56
